- Tested on: HepG2 (hepatocellular carcinoma) cell line
- testConditions: human
valueKind: SI HepG2/W2

// output SI HepG2/W2; input CC(=O)N[C@@H]1CC[C@@]2(C)[C@@H](C1)C[C@@H](OC(C)=O)[C@@H]1[C@@H]2C[C@H](OC(C)=O)[C@]2(C)[C@@H]([C@H](C)CCCNCCNc3ccnc4cc(Cl)ccc34)CC[C@@H]12 [Compound 36] ; system HepG2 (hepatocellular carcinoma) cell line
126/116/126

// output SI HepG2/W2; input CC(=O)O[C@H]1C[C@H]2[C@@H]([C@H](OC(C)=O)C[C@@H]3C[C@H](O)CC[C@@]32C)[C@@H]2CC[C@H]([C@H](C)CCCNCCNc3ccnc4cc(Cl)ccc34)[C@@]12C [Compound 16] ; system HepG2 (hepatocellular carcinoma) cell line
415/938/407

// output SI HepG2/W2; input CC(=O)O[C@H]1C[C@H]2[C@@H]([C@H](OC(C)=O)C[C@@H]3C[C@H](N(C)C)CC[C@@]32C)[C@@H]2CC[C@H]([C@H](C)CCCN(C)CCCNc3ccnc4cc(Cl)ccc34)[C@@]12C [Compound 57] ; system HepG2 (hepatocellular carcinoma) cell line
93/35/71

// output SI HepG2/W2; input CC(=O)N[C@@H]1CC[C@@]2(C)[C@@H](C1)C[C@@H](OC(C)=O)[C@@H]1[C@@H]2C[C@H](OC(C)=O)[C@]2(C)[C@@H]([C@H](C)CCCNCCCNc3ccnc4cc(Cl)ccc34)CC[C@@H]12 [Compound 37] ; system HepG2 (hepatocellular carcinoma) cell line
55/114/51

// output SI HepG2/W2; input CC(=O)O[C@@H]1CC[C@@]2(C)[C@@H](C1)C[C@@H](OC(C)=O)[C@@H]1[C@@H]2C[C@H](OC(C)=O)[C@]2(C)[C@@H]([C@H](C)CCCN(C)CCNc3ccnc4cc(Cl)ccc34)CC[C@@H]12 [Compound 20] ; system HepG2 (hepatocellular carcinoma) cell line
98/242/79

// output SI HepG2/W2; input CC(=O)O[C@@H]1CC[C@@]2(C)[C@@H](C1)C[C@@H](OC(C)=O)[C@@H]1[C@@H]2C[C@H](OC(C)=O)[C@]2(C)[C@@H]([C@H](C)CCCN(C)CCCNc3ccnc4cc(Cl)ccc34)CC[C@@H]12 [Compound 21] ; system HepG2 (hepatocellular carcinoma) cell line
134/229/71

----------
- Tested on: HepG2 (hepatocellular carcinoma) cell line
- testConditions: human
valueKind: SI HepG2/D6

Retrieve SI HepG2/D6 measured for CC(=O)O[C@H]1C[C@H]2[C@@H]([C@H](OC(C)=O)C[C@@H]3C[C@H](N(C)C)CC[C@@]32C)[C@@H]2CC[C@H]([C@H](C)CCCNCCCNc3ccnc4cc(Cl)ccc34)[C@@]12C [Compound 51] and print it.
382/137/156

Retrieve SI HepG2/D6 measured for CC(=O)O[C@H]1C[C@H]2[C@@H]([C@H](OC(C)=O)C[C@@H]3CC(NCCCNc4ccnc5cc(Cl)ccc45)CC[C@@]32C)[C@@H]2CC[C@H]([C@H](C)CCCNCCCNc3ccnc4cc(Cl)ccc34)[C@@]12C (mixture of isomers) [Compound 63] and print it.
43/32/24

Retrieve SI HepG2/D6 measured for CC(=O)O[C@H]1C[C@H]2[C@@H]([C@H](OC(C)=O)C[C@@H]3C[C@H](O)CC[C@@]32C)[C@@H]2CC[C@H]([C@H](C)CCCNCCCNc3ccnc4cc(Cl)ccc34)[C@@]12C [Compound 17] and print it.
84/115/90

Retrieve SI HepG2/D6 measured for CC(=O)O[C@H]1C[C@H]2[C@@H]([C@H](OC(C)=O)C[C@@H]3C[C@H](NC(=O)OC(C)(C)C)CC[C@@]32C)[C@@H]2CC[C@H]([C@H](C)CCCN(CCCNc3ccnc4cc(Cl)ccc34)CCC[C@@H](C)[C@H]3CC[C@H]4[C@@H]5[C@H](OC(C)=O)C[C@@H]6C[C@H](NC(=O)OC(C)(C)C)CC[C@]6(C)[C@H]5C[C@H](OC(C)=O)[C@]34C)[C@@]12C [Compound 59] and print it.
96/96/96

Retrieve SI HepG2/D6 measured for CC(=O)O[C@H]1C[C@H]2[C@@H]([C@H](OC(C)=O)C[C@@H]3CC(=O)CC[C@@]32C)[C@@H]2CC[C@H]([C@H](C)CCCNCCCCNc3ccnc4cc(Cl)ccc34)[C@@]12C [Compound 24] and print it.
7/6/6

Retrieve SI HepG2/D6 measured for CC(=O)O[C@@H]1CC[C@@]2(C)[C@@H](C1)C[C@@H](OC(C)=O)[C@@H]1[C@@H]2C[C@H](OC(C)=O)[C@]2(C)[C@@H]([C@H](C)CCCN(C)CCNc3ccnc4cc(Cl)ccc34)CC[C@@H]12 [Compound 20] and print it.
98/242/79

Retrieve SI HepG2/D6 measured for CC(=O)O[C@H]1C[C@H]2[C@@H]([C@H](OC(C)=O)C[C@@H]3C[C@H](O)CC[C@@]32C)[C@@H]2CC[C@H]([C@H](C)CCCNCCCCNc3ccnc4cc(Cl)ccc34)[C@@]12C [Compound 18] and print it.
47/30/28
